- METHOD_DESCRIPTION: BET inhibitor-based combinations targeting novel dependencies in MECOM-rearranged (r) AML: OCI-AML3 cell line (AID 2202232); further: nearly all actives have a fitted effect of over 35% in size
- REPORTED_CONDITIONS: CellTiter-Glo luminescence, 48 h; OCI-AML3 viability; series mostly up to 46 µM
- Method: Ecotropic viral insertion site 1 (EVI1) is located on chromosome 3q26.2 as part of the MECOM (MDS and EVI1 complex) locus. […] A collection of 2480 mechanistically annotated dugs (MIPE v5.0) was used to screen four 3q26.2 rearranged AML cell lines and three non-3q26.2 rearranged AML cell lines. […] Cell viability was determined by luminescence based, Cell Titer Glo assay (Promega). […] Luminescence readings were taken using a Viewlux (PerkinElmer) with a 2 s exposure time per plate. […]
Results filed as inconclusive are left out. Active and inactive are the calls of the source. The call rests on the fitted dose curve; in most records, active means well fitted inhibition curve with a large enough effect; inconclusive means small, poorly fitted or top-dose-only effect; inactive means no such curve, though single readings can be large or run the other way.
Please answer using one outcome listed in active, inactive

These solved cases illustrate the format of a correct answer.
O=C(Nc1ccnc(NC(=O)C2CC2)c1)c1c(Cl)cccc1Cl = active
CN1CCN(c2ccc(C(=O)Nc3n[nH]c4ccc(Cc5cc(F)cc(F)c5)cc34)c(NC3CCOCC3)c2)CC1 = active
Cn1c(=O)c(F)c(Nc2ccc(I)cc2F)c2c(=O)n(C[C@@H](O)CO)cnc21 = active
O=C(O)c1cn(-c2ccc(F)cc2)c2cc(N3CCNCC3)c(F)cc2c1=O = inactive
CCCCc1nc2cc(/C=C/C(=O)NO)ccc2n1CCN(CC)CC = active
NC(=O)Nc1sc(-c2ccc(F)cc2)cc1C(N)=O = active

Inquiry: I'd appreciate the recorded outcome for Clc1ccc2c(N3CCN(CCCN4CCN(c5ccnc6cc(Cl)ccc56)CC4)CC3)ccnc2c1 from this test.
Reply text: inactive

Inquiry: I'd appreciate the recorded outcome for Oc1cc2c(cc1O)C1c3ccc(O)c(O)c3OCC1(O)C2 (stereo not given) from this test.
Reply text: active

Inquiry: I'd appreciate the recorded outcome for CC(C)C[C@H](NC(=O)[C@@H](O)[C@H](N)Cc1ccccc1)C(=O)O from this test.
Reply text: inactive

Inquiry: I'd appreciate the recorded outcome for CN1CCN(CCCN2c3ccccc3Sc3ccc(C(F)(F)F)cc32)CC1 from this test.
Reply text: active

Inquiry: I'd appreciate the recorded outcome for COc1cc(S(C)(=O)=O)ccc1Nc1nc2ccc(-c3ccc(NC(=O)[C@H](C)c4ccc(F)cc4)cc3)cn2n1 from this test.
Reply text: active

Inquiry: I'd appreciate the recorded outcome for CC[C@@]1(O)C(=O)OCc2c1cc1n(c2=O)Cc2cc3cc(O)ccc3nc2-1 from this test.
Reply text: active

Inquiry: I'd appreciate the recorded outcome for COc1ccc(N(C)c2nc(C)nc3ccccc23)cc1 from this test.
Reply text: active

Inquiry: I'd appreciate the recorded outcome for Nc1cccc(S(=O)(=O)N2CCCN(S(=O)(=O)c3ccc4c(c3)OCCO4)CC2)c1 from this test.
Reply text: inactive

Inquiry: I'd appreciate the recorded outcome for CC(C)(C)c1cnc(CSc2cnc(NC(=O)C3CCNCC3)s2)o1 from this test.
Reply text: active

Inquiry: I'd appreciate the recorded outcome for O=C(Nc1cc(C(F)(F)F)cc(C(F)(F)F)c1)c1cc(Cl)ccc1O from this test.
Reply text: active

Inquiry: I'd appreciate the recorded outcome for C[C@]12CC[C@H](O)CC1=CCC1C2CC[C@]2(C)C(n3cnc4ccccc43)=CCC12 (stereo not given in full) from this test.
Reply text: inactive
